- Species: Rattus norvegicus
- METHOD_DESCRIPTION: DrugMatrix - Regimen: Daily Repeat
- Format: toxicity, organism-based, Sprague-Dawley
- Design: regimen Daily Repeat, gender Male, age 6-8 weeks
- COND: in vivo, po, 0 mg/kg, 72 h, tissue Plasma, route oral GAVAGE, dose level Control, time 3 day, vehicle 100 % WATER
OUTCOME_MEASURE: CREATININE (mg/dL)
Answers are plain numbers, in mg/dL.

// for each compound below, give its CREATININE
1. COc1cc2ncnc(Nc3ccc(F)c(Cl)c3)c2cc1OCCCN1CCOCC1 [GEFITINIB]
2. C[C@@H]1C[C@@H]([C@H](O)CC2CC(=O)NC(=O)C2)C(=O)[C@@H](C)C1 [CYCLOHEXIMIDE]
3. ClC(Cl)Cl [CHLOROFORM]
4. CC(C)C[C@H](NC(=O)[C@@H](O)[C@H](N)Cc1ccccc1)C(=O)O [UBENIMEX]
5. CC(C)NCC(O)COc1cccc2ccccc12 (stereo not given) [PROPRANOLOL]
6. COC(=O)C1=C(C)NC(C)=C(C(=O)OCC(C)C)C1c1ccccc1[N+](=O)[O-] (stereo not given) [NISOLDIPINE]
7. C[N+](C)(C)CCO.[Cl-] [CHOLINE CHLORIDE]

OUTPUT:
[0.68, 0.22, 0.18, 0.17, 0.29, 0.12, 0.22]
